System: UniProt:O76083
Sequence (O76083 whole entry): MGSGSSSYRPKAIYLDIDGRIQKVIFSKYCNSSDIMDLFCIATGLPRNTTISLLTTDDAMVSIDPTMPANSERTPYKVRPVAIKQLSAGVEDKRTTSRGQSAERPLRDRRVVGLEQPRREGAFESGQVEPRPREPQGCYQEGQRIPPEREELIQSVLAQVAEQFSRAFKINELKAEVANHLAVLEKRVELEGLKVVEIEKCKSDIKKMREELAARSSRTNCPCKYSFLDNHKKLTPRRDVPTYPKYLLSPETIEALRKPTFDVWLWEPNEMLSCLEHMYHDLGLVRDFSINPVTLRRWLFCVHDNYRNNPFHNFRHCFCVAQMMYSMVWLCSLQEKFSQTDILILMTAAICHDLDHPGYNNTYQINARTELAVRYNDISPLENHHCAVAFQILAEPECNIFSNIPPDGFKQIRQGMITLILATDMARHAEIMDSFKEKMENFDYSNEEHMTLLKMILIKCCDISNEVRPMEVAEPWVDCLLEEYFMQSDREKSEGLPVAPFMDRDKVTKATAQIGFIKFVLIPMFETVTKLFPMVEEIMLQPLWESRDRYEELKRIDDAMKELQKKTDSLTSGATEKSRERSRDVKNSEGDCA
Assay remarks: PDE9 inhibition assay
Format: biochemical
Observed property: IC50 (nM)

Here's what some known entries look like.
INSERT INTO measurements (compound, system, unit_of_measure, value_measured) VALUES
  ('O=c1[nH]c(CN2CC(c3ccc(C(F)(F)F)cn3)C2)cn2c(C3CCOCC3)ncc12', 'UniProt:O76083', 'nM', 10),
  ('N#Cc1cccc(OC2CN(Cc3cn4c(C5CCOCC5)ncc4c(=O)[nH]3)C2)c1', 'UniProt:O76083', 'nM', 12),
  ('COc1ccc(C2CN(C(C)c3cn4c(-c5ccc(F)cc5)ncc4c(=O)[nH]3)C2)cc1 (centres unmarked)', 'UniProt:O76083', 'nM', 70),
  ('CC(C)OC1CN(Cc2cn3c(C4CCCC4)ncc3c(=O)[nH]2)C1', 'UniProt:O76083', 'nM', 17),
  ('O=c1[nH]c(CN2CC(OCc3ccccc3)C2)cn2c(C3CCCC3)ncc12', 'UniProt:O76083', 'nM', 50);

[A] Cc1ccnc(C2CN(C(C)c3cn4c(-c5ccccc5)ncc4c(=O)[nH]3)C2)c1 (centres unmarked)
[B] O=c1[nH]c(CN2CC(c3ccccc3)C2)cn2c(C3CCOCC3)ncc12
[C] COc1ccc(C2CN(Cc3cn4c(C5CCOCC5)ncc4c(=O)[nH]3)C2)cc1
Rank the 3 compounds: largest IC50 first, smallest last. Dear reader, please state the labels in the requested order.
C, A, B
(C: 30 nM, A: 20 nM, B: 8 nM)

[a] COc1ccc(C2CN(Cc3cn4c(-c5cc(F)cc(F)c5)ncc4c(=O)[nH]3)C2)cc1
[b] O=c1[nH]c(CN2CC(Oc3ccc(F)cc3)C2)cn2c(C3CCOCC3)ncc12
[c] CC(C)OC1CN(C(C)c2cn3c(-c4ccc(F)cc4)ncc3c(=O)[nH]2)C1 (centres unmarked)
Ordering: ascending IC50. Dear reader, please state the labels in the requested order.
c, a, b
(c: 22 nM, a: 38 nM, b: 115 nM)

###

System: UniProt:O76083
Assay remarks: PDE9 inhibition assay
Assay type: biochemical
Condition context: SPA assay, 10 nM 3H-cAMP, 1 hour incubation; read-out: IC50
pIC50: −log10 of the molar value.
Observed property: pIC50

INSERT INTO measurements (compound, value_measured) VALUES
  ('O=c1[nH]c(CN2CC(Oc3ccccc3)C2)cn2c(-c3ccc(F)cc3)ncc12 [Compound 73]', 6.75),
  ('O=c1[nH]c(CN2CC(Oc3ccncc3)C2)cn2c(-c3ccc(F)cc3)ncc12 [Compound 87]', 7.38),
  ('O=c1[nH]c(CN2CC(Oc3cnccn3)C2)cn2c(-c3ccc(F)cc3)ncc12 [Compound 55]', 8.05),
  ('CC1CN(Cc2ccccn2)CC1c1cn2c(-c3ccccc3)ncc2c(=O)[nH]1 (stereo not drawn) [Compound 43]', 7.85),
  ('O=c1[nH]c(CN2CC(Oc3ccc(OC(F)(F)F)cc3)C2)cn2c(C3CCOCC3)ncc12 [Compound 64]', 7.89);

[P] O=c1[nH]c(CN2CC(Oc3cccc(F)n3)C2)cn2c(-c3ccccc3)ncc12 [Compound 6]
[Q] CC1CN(Cc2ncccn2)CC1c1cn2c(C3CCOCC3)ncc2c(=O)[nH]1 (stereo not drawn) [Compound 90]
[R] Cc1nc2ccccc2nc1OC1CN(Cc2cn3c(C4CCCC4)ncc3c(=O)[nH]2)C1 [Compound 46]
[S] CC(c1cn2c(-c3ccc(F)cc3)ncc2c(=O)[nH]1)N1CC(c2ccc(F)cc2)C1 (stereo not drawn) [Compound 124]
[T] O=c1[nH]c(CN2CC(Oc3cccc(F)n3)C2)cn2c(-c3ccc(F)cc3)ncc12 [Compound 60]
Ordering: ascending pIC50. Dear reader, please state the labels in the requested order.
T, S, P, Q, R

Data provenance: patent US9643970B2
